Biological target: UniProtKB Q8N474
Assay: Cell-based assay for in vitro measurement of SFRP-1/SARP2 antagonist activity (U2OS cells co-transfected with 16x TCF-tk-Luciferase reporter, Wnt and hSFRP-1)
Conditions: U2OS, read-out: Fold Induction with SFRP-1, Conc 30 μM; with SFRP-1; fold induction over SFRP-1 control, single dose
assay.metric: fold induction at 30 µM

{"smiles.string": "Cc1ccc(S(=O)(=O)c2ccccc2)cc1S(=O)(=O)NCCc1ccccc1Cl", "assay.metric": "fold induction at 30 µM", "obs.value": 0.4}
{"smiles.string": "COC(=O)CCNS(=O)(=O)c1cccc(S(=O)(=O)c2ccccc2)c1", "assay.metric": "fold induction at 30 µM", "obs.value": 1}
{"smiles.string": "Cc1ccc(S(=O)(=O)c2ccc(C)c(S(=O)(=O)NCCc3ccccc3)c2)cc1", "assay.metric": "fold induction at 30 µM", "obs.value": 0.9}
{"smiles.string": "COc1ccc(CCNS(=O)(=O)c2cc(S(=O)(=O)c3ccccc3)ccc2C)cc1OC", "assay.metric": "fold induction at 30 µM", "obs.value": 1.7}
{"smiles.string": "COc1ccc(CCNS(=O)(=O)c2cc(S(=O)(=O)c3ccc(C)cc3)ccc2C)cc1OC", "assay.metric": "fold induction at 30 µM", "obs.value": 1.2}
{"smiles.string": "Cc1ccc(S(=O)(=O)c2ccc(F)cc2)cc1S(=O)(=O)NCCc1cccc(F)c1", "assay.metric": "fold induction at 30 µM", "obs.value": 0.3}
{"smiles.string": "COc1ccccc1CCNS(=O)(=O)c1cc(S(=O)(=O)c2ccc(C)cc2)ccc1C", "assay.metric": "fold induction at 30 µM", "obs.value": 1.3}
{"smiles.string": "Cc1ccc(S(=O)(=O)c2ccc(C)c(S(=O)(=O)NCCc3ccccc3Cl)c2)cc1", "assay.metric": "fold induction at 30 µM", "obs.value": 1}

====

The entries below are paired with their reported fold induction at 15 µM.
Molecular target: SFRP-1 (Homo sapiens)
Sequence (Q8N474 32-314): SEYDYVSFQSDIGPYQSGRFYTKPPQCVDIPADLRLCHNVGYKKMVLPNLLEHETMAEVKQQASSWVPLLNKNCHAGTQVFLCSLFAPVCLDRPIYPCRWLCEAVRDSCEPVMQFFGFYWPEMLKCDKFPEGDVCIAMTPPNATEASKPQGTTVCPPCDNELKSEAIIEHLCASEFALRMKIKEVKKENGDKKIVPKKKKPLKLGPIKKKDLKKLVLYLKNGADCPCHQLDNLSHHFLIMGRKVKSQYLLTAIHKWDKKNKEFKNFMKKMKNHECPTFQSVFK
Assay: Cell-based assay for in vitro measurement of SFRP-1/SARP2 antagonist activity (U2OS cells co-transfected with 16x TCF-tk-Luciferase reporter, Wnt and hSFRP-1);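 further: U2OS cells co-transfected with a TCF-tk luciferase reporter, a Wnt vector, hSFRP-1 or empty vector and CMV-βgal, luciferase luminescence read in cell lysates alongside βgal activity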
Details: U2OS, read-out: Fold Induction with SFRP-1, Conc 15 μM; with SFRP-1; fold induction over SFRP-1 control, single dose
assay.metric: fold induction at 15 µM

{"compound": "COc1ccccc1S(=O)(=O)c1ccc(C)c(S(=O)(=O)NCCCn2ccnc2)c1 [Example 316]", "target.system": "SFRP-1 (Homo sapiens)", "assay.metric": "fold induction at 15 µM", "obs.value": 2.5}
{"compound": "CCS(=O)(=O)c1cccc(S(=O)(=O)c2ccc(C)c(S(=O)(=O)NCCc3ccccn3)c2)c1 [Example 429]", "target.system": "SFRP-1 (Homo sapiens)", "assay.metric": "fold induction at 15 µM", "obs.value": 0.9}
{"compound": "COc1ccc(C(=O)N2CCC(NS(=O)(=O)c3cc(S(=O)(=O)c4ccccc4)ccc3C)CC2)cc1 [Example 467]", "target.system": "SFRP-1 (Homo sapiens)", "assay.metric": "fold induction at 15 µM", "obs.value": 2.3}
{"compound": "Cc1ccc(S(=O)(=O)c2ccccc2)cc1S(=O)(=O)NC[C@@H](C)c1ccccc1 [Example 262]", "target.system": "SFRP-1 (Homo sapiens)", "assay.metric": "fold induction at 15 µM", "obs.value": 1.6}
{"compound": "COc1cccc(C(=O)N2CCC(NS(=O)(=O)c3cc(S(=O)(=O)c4ccccc4)ccc3C)CC2)c1 [Example 463]", "target.system": "SFRP-1 (Homo sapiens)", "assay.metric": "fold induction at 15 µM", "obs.value": 2.9}
{"compound": "CCNc1ccc(S(=O)(=O)c2ccc(C)c(S(=O)(=O)NCCCn3ccnc3)c2)cc1 [Example 311]", "target.system": "SFRP-1 (Homo sapiens)", "assay.metric": "fold induction at 15 µM", "obs.value": 2.4}
{"compound": "COCCNS(=O)(=O)c1cc(S(=O)(=O)c2ccccc2)ccc1OC [Example 240]", "target.system": "SFRP-1 (Homo sapiens)", "assay.metric": "fold induction at 15 µM", "obs.value": 1.4}
{"compound": "Cc1ccc(S(=O)(=O)c2cccs2)cc1S(=O)(=O)NCCCn1ccnc1 [Example 362]", "target.system": "SFRP-1 (Homo sapiens)", "assay.metric": "fold induction at 15 µM", "obs.value": 2.4}
{"compound": "Cc1ccc(S(=O)(=O)c2ccc(N[C@@H](C)C3CCCCC3)cc2)cc1S(=O)(=O)NCCCn1ccnc1 [Example 371]", "target.system": "SFRP-1 (Homo sapiens)", "assay.metric": "fold induction at 15 µM", "obs.value": 1.4}
{"compound": "CC(=O)NCCNS(=O)(=O)c1cc(S(=O)(=O)c2ccc(F)cc2)ccc1C [Example 168]", "target.system": "SFRP-1 (Homo sapiens)", "assay.metric": "fold induction at 15 µM", "obs.value": 1.7}
{"compound": "Cc1ccc(S(=O)(=O)c2ccccc2)cc1S(=O)(=O)NC1CC(C)(C)NC(C)(C)C1 [Example 411]", "target.system": "SFRP-1 (Homo sapiens)", "assay.metric": "fold induction at 15 µM", "obs.value": 1.6}
{"compound": "COC(=O)CCNS(=O)(=O)c1cc(S(=O)(=O)c2ccccc2)ccc1OC [Example 233]", "target.system": "SFRP-1 (Homo sapiens)", "assay.metric": "fold induction at 15 µM", "obs.value": 1.5}
{"compound": "Cc1ccc(S(=O)(=O)c2ccccc2)cc1S(=O)(=O)NC1CC1 [Example 424]", "target.system": "SFRP-1 (Homo sapiens)", "assay.metric": "fold induction at 15 µM", "obs.value": 2.1}
{"compound": "CCC(O)CNc1ccc(S(=O)(=O)c2ccc(C(C)C)c(S(=O)(=O)NCCn3ccnc3)c2)cc1 (stereo not shown) [Example 452]", "target.system": "SFRP-1 (Homo sapiens)", "assay.metric": "fold induction at 15 µM", "obs.value": 3.8}
{"compound": "Cc1ccc(S(=O)(=O)c2ccccc2)cc1S(=O)(=O)NC1CCN(C(=O)c2ccc3c(c2)OCO3)CC1 [Example 484]", "target.system": "SFRP-1 (Homo sapiens)", "assay.metric": "fold induction at 15 µM", "obs.value": 2.4}
{"compound": "CC(=O)N1CCC(NS(=O)(=O)c2cc(S(=O)(=O)c3ccccc3)ccc2C)CC1 [Example 479]", "target.system": "SFRP-1 (Homo sapiens)", "assay.metric": "fold induction at 15 µM", "obs.value": 2.1}
